- target: UniProt:P35372
- method: Receptor binding, competitive displacement of [3H]DAMGO
- study_conditions: 0.25 nM [3H]DAMGO, CHO cell membrane protein, 60 min at 25° C.
pKi: −log10 of the molar value. Where a name gives a salt, the structure may show the parent alone.
Below, each entry is listed alongside its reported pKi.
readout: pKi

{"compound": "COC1(c2ccnc(C(N)=O)c2)C2CCCC1CN(C1CCOCC1)C2.Cl (stereo not drawn) [Compound 56, hydrochloride]", "value_measured": "< 8.30"}
{"compound": "COC1(c2cc(C(N)=O)cs2)C2CCCC1CN(CC1CC1)C2 (stereo not drawn) [Compound 59, hydrochloride]", "value_measured": "8.30 to 9.00"}
{"compound": "COC1(c2cccc(C(N)=O)c2)C2CCCC1CN(CC1CCS(=O)(=O)CC1)C2 (stereo not drawn) [Compound 1, hydrochloride]", "value_measured": "8.30 to 9.00"}
{"compound": "COC1(c2ccc(C(N)=O)s2)C2CCCC1CN(C13CC(C1)C3)C2 (stereo not drawn) [Compound 112, hydrochloride]", "value_measured": "8.30 to 9.00"}
{"compound": "COC1(c2ccnc(C(N)=O)c2)C2CCCC1CN(CC1CC1)C2.Cl (stereo not drawn) [Compound 27, hydrochloride]", "value_measured": "8.30 to 9.00"}
{"compound": "COC1(c2ccnc(C(N)=O)c2)C2CCCC1CN(C1CC(c3ccccc3)C1)C2 (stereo not drawn) [Compound 87, hydrochloride]", "value_measured": "> 9.00"}
{"compound": "COC1(c2cccc(C(N)=O)c2)C2CCCC1CN(CCS(C)(=O)=O)C2 (stereo not drawn) [Compound 150, hydrochloride]", "value_measured": "8.30 to 9.00"}
{"compound": "COC1(c2ccnc(C(N)=O)c2)C2CCCC1CN(Cc1ccno1)C2 (stereo not drawn) [Compound 124, hydrochloride]", "value_measured": "< 8.30"}
{"compound": "COC1(c2ccnc(C(N)=O)c2)C2CCCC1CN(C1CC3(CCC3)C1)C2 (stereo not drawn) [Compound 77, hydrochloride]", "value_measured": "> 9.00"}
{"compound": "COC1(c2ccnc(C(N)=O)c2)C2CCCC1CN(C[C@@H]1C[C@@H]3C[C@@H]3C1)C2.Cl (stereo partly drawn) [Compound 104, hydrochloride]", "value_measured": "> 9.00"}
{"compound": "COC1(c2ccnc(C(N)=O)c2)C2CCCC1CN(CCN1CCCS1(=O)=O)C2 (stereo not drawn) [Compound 88, hydrochloride]", "value_measured": "8.30 to 9.00"}
{"compound": "COC1(c2ccnc(C(N)=O)c2)C2CCCC1CN(CC1(O)CC1)C2 (stereo not drawn) [Compound 72, hydrochloride]", "value_measured": "8.30 to 9.00"}

----------
- target: human μ opioid receptor (Homo sapiens (Human), UniProt P35372)
- method: Functional activity ([35S]GTPγS binding)
- Assay type: biochemical
- study_conditions: [35S]GTPγS 0.080 nM, CHO cell membranes, 60 min at 30° C., filtration
pEC50: −log10 of the molar value. Counter-ions that a name gives are not always drawn.

{"compound": "COC1(c2ccc(C(N)=O)s2)C2CCCC1CN(C13CC(C1)C3)C2 (centres unmarked) [Compound 112, hydrochloride]", "target": "human μ opioid receptor (Homo sapiens (Human), UniProt P35372)", "pEC50": "< 7.12"}
{"compound": "COC1(c2cccc(C(N)=O)c2)C2CCCC1CN(CC1(O)CC1)C2.Cl (centres unmarked) [Compound 46, hydrochloride]", "target": "human μ opioid receptor (Homo sapiens (Human), UniProt P35372)", "pEC50": "7.12 to 8.00"}
{"compound": "COC1(c2ccnc(C(N)=O)c2)C2CCCC1CN(C1CC3(CCC3)C1)C2 (centres unmarked) [Compound 77, hydrochloride]", "target": "human μ opioid receptor (Homo sapiens (Human), UniProt P35372)", "pEC50": "> 8.00"}
{"compound": "COC1(c2ccc(C(N)=O)s2)C2CCCC1CN(C)C2.Cl (centres unmarked) [Compound 48, hydrochloride]", "target": "human μ opioid receptor (Homo sapiens (Human), UniProt P35372)", "pEC50": "7.12 to 8.00"}
{"compound": "COC1(c2cccc(C(N)=O)c2)C2CCCC1CN(C[C@@H]1[C@@H]3COC[C@@H]31)C2 (some centres unmarked)", "target": "human μ opioid receptor (Homo sapiens (Human), UniProt P35372)", "pEC50": "7.12 to 8.00"}
{"compound": "COC1(c2cccc(C(N)=O)c2)C2CCCC1CN(CCS(C)(=O)=O)C2 (centres unmarked) [Compound 150, hydrochloride]", "target": "human μ opioid receptor (Homo sapiens (Human), UniProt P35372)", "pEC50": "< 7.12"}
{"compound": "COC1(c2ccnc(C(N)=O)c2)C2CCCC1CN(CC1CCOCC1)C2.Cl (centres unmarked) [Compound 127, hydrochloride]", "target": "human μ opioid receptor (Homo sapiens (Human), UniProt P35372)", "pEC50": "7.12 to 8.00"}
{"compound": "COC1(c2cccc(C(N)=O)c2)C2CCCC1CN([C@H]1C[C@H]3C[C@H]3C1)C2 (some centres unmarked) [Compound 11, hydrochloride]", "target": "human μ opioid receptor (Homo sapiens (Human), UniProt P35372)", "pEC50": "> 8.00"}
